Where do these numbers come from? They come from ChEMBL document CHEMBL2321712.

PROTOCOL_NOTES: Cmax in monkey at 10 mg/kg, po
Type: ADME, organism-based, Macaca mulatta
Design: dose 10 mg/kg, route oral
SETUP_CONDITIONS: rhesus monkey, in vivo
OUTCOME_MEASURE: Cmax
A complete answer gives the number and then names the unit.

QUERY: Report Cmax for COc1cc2c(cc1F)C(c1ccccc1Cl)=Nc1c(n[nH]c1C)N2 please.
RESULT: 406 ng/mL

====

PROTOCOL_NOTES: Total clearance in monkey at 1 mg/kg, iv
Type: ADME, organism-based, Macaca mulatta
Set-up: dose 1 mg/kg, route intravenous
SETUP_CONDITIONS: rhesus monkey, in vivo
OUTCOME_MEASURE: clearance (mL/min/kg)
Answers are plain numbers, in mL/min/kg.

QUERY: clearance lookup needed for COc1cc2c(cc1F)C(c1ccccc1Cl)=Nc1c(n[nH]c1C)N2 , thanks.
RESULT: 7.82

====

PROTOCOL_NOTES: AUC (0 to 24 hrs) in mouse at 25 mg/kg, po
Type: ADME, organism-based
Set-up: time < 24 hr, dose 25 mg/kg, route oral
SETUP_CONDITIONS: plasma
OUTCOME_MEASURE: AUC(0-t) at 24 h (ng·h/mL)
Give bare numbers, in ng·h/mL.

QUERY: Which AUC(0-t) at 24 h value is on record for COc1cc2c(cc1F)C(c1ccccc1Cl)=Nc1c(n[nH]c1C)N2 ?
RESULT: 46700
